Assay: qHTS of pediatric cancer cell lines to identify multiple opportunities for drug repurposing: Primary screen for Rh18 cells (AID 1347102); further: nearly all actives have a fitted effect of over 65% in size
Conditions: Rh18 rhabdomyosarcoma viability, CellTiter-Glo luminescence, 48 h; series mostly up to 46 µM
Method: Drug repurposing or repositioning has been offered as a strategy for drug development in oncology programs. […] [1] Shen, M et al. Quantitative high-throughput phenotypic screening of pediatric cancer cell lines identifies multiple opportunities for drug repurposing. […] Cells were assayed in growth media at a density of 500-1,000 cells/well. […] After a 15 min incubation at room temperature, samples were analyzed for luminescence intensity using a ViewLux High-throughput CCD imager equipped with clear filters.
Records with an inconclusive call do not appear. Active and inactive are the calls of the source. The call rests on the fitted dose curve; in most records, active means well fitted cell-killing curve with a large enough effect; inconclusive means small, poorly fitted or top-dose-only effect; inactive means flat fitted curve, though single readings scatter.

molecule	outcome
CC(C)CN(C[C@@H](O)[C@H](Cc1ccccc1)NC(=O)O[C@H]1CO[C@H]2OCC[C@H]21)S(=O)(=O)c1ccc(N)cc1	inactive
CS(=O)(=O)c1ccc(C2=C(c3ccccc3)C(=O)OC2)cc1	inactive
NC(=O)c1ncn([C@@H]2O[C@H](CO)[C@@H](O)[C@@H]2O)n1	inactive
CCCCC(F)(F)[C@@]1(O)CC[C@H]2[C@H](CC(=O)[C@@H]2CCCCCCC(=O)O)O1	inactive
O=C1C(CCC(O)c2ccc(F)cc2)C(c2ccc(O)cc2)N1c1ccc(F)cc1 (centres undefined)	inactive
C=C[C@@H]1CN2CCC1C[C@@H]2C(O)c1ccnc2ccc(OC)cc12 (some centres undefined)	inactive
CCOC(=O)[C@H](CCc1ccccc1)N[C@@H](C)C(=O)N1CCCC1C(=O)O (some centres undefined)	inactive
COc1cc(F)c(C(C)C)cc1-c1ccc(C(F)(F)F)cc1CN1C(=O)O[C@H](c2cc(C(F)(F)F)cc(C(F)(F)F)c2)[C@@H]1C	inactive
Cc1csc(-c2nnc(Nc3ccc(Oc4ncccc4-c4ccnc(N)n4)cc3)c3ccccc23)c1	inactive

====

Test: Quantitative High-Throughput drug screen in 47 multiple myeloma cell lines against the NCATS MIPE library collection: PCM6_Riken cell viability assay (AID 1919870); further: nearly all actives have a fitted effect of over 30% in size
Conditions: CellTiter-Glo ATP, 48 h; series mostly up to 45.8 µM
Excerpt: PI: Beverly A. Mock Ph.D. Laboratory of Cancer Biology and Genetics, Center for Cancer Research, National Cancer Institute, National Institute of Health, Bethesda, Maryland […] 5; Detector; 425V; Luminescence; Viewlux PerkinElmer. […] 1. […] Briefly, the corresponding myeloma cell lines were screened in 1,536-well plates with 500 cells, 5-uL per well for inhibition of cell viability (assessed by measuring ATP levels with CellTiterGlo). […]
Records with an inconclusive call do not appear. Active and inactive are the calls of the source. The call rests on the fitted dose curve; in most records, active means well fitted cell-killing curve with a large enough effect; inconclusive means small, poorly fitted or top-dose-only effect, or effect the other way; inactive means no such curve, though single readings can be large or run the other way.
Classes used: yes (1) (active), no (0) (inactive)

compound	assigned.label
CNC1[C@H](O)C(O[C@@H]2C(O)C(O[C@H]3O[C@H]([C@@H](C)NC)CC[C@H]3N)[C@@H](N)C[C@H]2N)OC[C@]1(C)O (stereo partly specified)	no (0)
CCN(CCO)CCCOc1ccc2c(Nc3cc(CC(=O)Nc4cccc(F)c4)[nH]n3)ncnc2c1	no (0)
CC(=O)OCC(=O)[C@@]1(O)CC[C@H]2[C@@H]3CCC4=CC(=O)C=C[C@]4(C)[C@@H]3[C@@H](O)C[C@@]21C	no (0)
CC1CNc2c(cccc2S(=O)(=O)N[C@@H](CCCN=C(N)N)C(=O)N2CC[C@@H](C)C[C@@H]2C(=O)O)C1 (stereo partly specified)	no (0)
CNc1nc(-c2ccc3c(N)n[nH]c3c2)cc(N2C[C@@H](C(=O)NC3CCCCC3)CC[C@@H]2C)n1	yes (1)
CN1N=C(N)c2cn([C@@H]3O[C@H](COP(=O)(O)O)[C@@H](O)[C@@H]3O)c3ncnc1c23	yes (1)
CCCCC(F)(F)[C@@]1(O)CC[C@H]2[C@H](CC(=O)[C@@H]2CCCCCCC(=O)O)O1	no (0)
C[C@@H](N)c1ccc(C(=O)Nc2ccnc3[nH]ccc23)cc1	yes (1)
CO[C@H]1C=CO[C@@]2(C)Oc3c(C)c(O)c4c(O)c(c(C=NN5CCN(C)CC5)c(O)c4c3C2=O)NC(=O)C(C)=CC=C[C@H](C)[C@H](O)[C@@H](C)[C@@H](O)[C@@H](C)[C@H](OC(C)=O)[C@H]1C	no (0)
Cc1nn(Cc2ccccc2Cl)c(C)c1CN(C)CC(O)COc1ccc(Cl)cc1 (stereo unspecified)	yes (1)
NCc1c[nH]c(=S)n1[C@H]1CCc2c(F)cc(F)cc2C1	yes (1)
OC[C@H]1O[C@@H](OCCc2ccc(O)cc2)[C@H](O)[C@@H](O)[C@H]1O	no (0)
Cc1csc(-c2nnc(Nc3ccc(Oc4ncccc4-c4ccnc(N)n4)cc3)c3ccccc23)c1	yes (1)
C[C@@H]1[C@H](O)[C@@H](C)C=CC=CC=CC=CC=CC=CC=C[C@H](O[C@@H]2O[C@H](C)[C@H](O)[C@H](N)[C@@H]2O)C[C@@H]2O[C@](O)(C[C@@H](O)C[C@@H](O)[C@H](O)CC[C@@H](O)C[C@@H](O)CC(=O)O[C@H]1C)C[C@H](O)[C@@H]2C(=O)O	yes (1)
COc1cc(C=CC(=O)O)ccc1O	no (0)
Clc1ccc(C2(c3ccc(-c4cn[nH]c4)cc3)CCNCC2)cc1	yes (1)
